Catalogue of binders with associated neutralization IC50
- Target Or System: HIV-1 Env of AC10.29 (HIV-1)
- Test Protocol: cell-based or functional assay

Record excerpt, results attached:
* CAP256-VRC26.02 (antibody, V domains shown) VH: EVQLVESGGGVVQPGRSLRLSCAASQFSFGNYGMHWVRQAPGKGLEWVAAISFAGTKTNYADSVKGRFTISRDNSKNTVYLQMNSLRAEDTALYFCAKDIREYECEYWTSDYYDFGRPQPCIDSRGVVGTFDVWGQGTMVTVSS VL: QSVLTQPPSVSAAPGQKVTISCSGSNSNIGNKDVSWYQQIPATAPKLLIYENNKRPSGISDRFSGSKSGTSATLAITGLQTGDEADYYCATWDGRVSVIGTGTNVIVLG | > 50 µg/mL
* CAP256-VRC26.09 (antibody, V domains shown) VH: EVQLVESGGGVVQPGRSLTLSCAASQFNFANYGMHWVRQAPGKGLEWVASISNDGTKKYHEESVWGRFTISKDNSKSTLFLQMNSLRIEDTALYFCVKDQREDECEEWWSDYYDFGRELPCRKSRGLGLAGIFDMWGHGTMVTVSS VL: QSALTQPPSVSAAPGQKVTISCSGNSSNIGNNFVSWYQQLPGTAPKLLIYENNRRPSGIPDRFSGSKSGTSATLAISGLQTGDEADYWCAVWGVRRGAGAVFGAGTKVTVLG | > 50 µg/mL

Please look at the following binder next.
The binder identified as CAP256-VRC26.12 (antibody, V domains shown) VH: EVQLVQSGGGVVQPGRSLRLSCAAPYFEFGRYGFHWVRQAPGKGLEWVASISFAGRDYYHSPSVWGRFTISRDNSKNTLYLQMNSLRIEDTALYFCARDLRESECEEWESDYYDFGKKGPCVKPRGVAGGLDLWGQGTMVIVSS VL: QSVLTQPPSVSTAPGQTVTVSCSGGTSNTGNNFVSWYQHLPGTAPKLLIYENNKRPLGVPDRFSGAKSGTSATLAITGLQTGDEGDYYCATWSGSLNIGTGTKVSVLG registered its neutralization IC50 at > 50 µg/mL

src = patent US20200199204A1
